- Test system: Calf thymus DNA
- protocolDetails: Binding affinity to calf thymus DNA in 0.15 M NaCl-0.01 M sodium phosphate buffer at pH 7.3 at 37 degC incubated for 30 mins
- Assay type: nucleic-acid assay
- assaySetup: Bos taurus
Active and inactive are the calls of the source. The calls are words filed in the database; no cut-off is given here.
quantityKind: Activity

Cc1ccc(C(=O)N[C@@H]2C(=O)N[C@H](C(C)C)C(=O)N3CCC[C@H]3C(=O)N(C)CC(=O)N(C)[C@@H](C(C)C)C(=O)O[C@@H]2C)c2c1Oc1c(c(C(=O)N[C@@H]3C(=O)N[C@H](C(C)C)C(=O)N4CCC[C@H]4C(=O)N(C)CC(=O)N(C)[C@@H](C(C)C)C(=O)O[C@@H]3C)c3ncc(=O)oc3c1C)N2: Active
Cc1ccc(C(=O)N[C@@H]2C(=O)N[C@H](C(C)C)C(=O)N3CCC[C@H]3C(=O)N(C)CC(=O)N(C)[C@@H](C(C)C)C(=O)O[C@@H]2C)c2c1Oc1c(c(C(=O)N[C@@H]3C(=O)N[C@H](C(C)C)C(=O)N4CCC[C@H]4C(=O)N(C)CC(=O)N(C)[C@@H](C(C)C)C(=O)O[C@@H]3C)c3nc(CC(=O)O)c(=O)oc3c1C)N2: Active
